Values were extracted from patent US20020137929A1.

# System: ORYSAT (Rice, Tebonnet)
# protocol.text: Rice tolerance to post-transplant applications, flooded paddy conditions (Table III)
# Assay type: in vivo, Oryza sativa, (L.) Tebonnet
# experimental.context: in vivo
measurement.name: Herbicidal rating ORYSAT (rice tolerance)
Returns: the value as a bare number; no unit string appended.

Inquiry: Request: Herbicidal rating ORYSAT (rice tolerance), test system ORYSAT (Rice, Tebonnet), entry Cn1c(C(F)(F)F)cc(=O)n(-c2cc(N=C3SCC(=O)N3CCC(=O)O)c(Cl)cc2F)c1=O [Compound 31]
Reply text: 0.0

Inquiry: What Herbicidal rating ORYSAT (rice tolerance) appears in the records for this molecule with ORYSAT (Rice, Tebonnet)? Cn1c(C(F)(F)F)cc(=O)n(-c2cc(N=C3SCC(=O)N3CCC(=O)O)c(Cl)cc2F)c1=O [Compound 30]
Reply text: 0.0

Inquiry: API: value(readout=Herbicidal rating ORYSAT (rice tolerance), system=ORYSAT (Rice, Tebonnet)) for record CCOC(=O)CN1C(=O)C(=C(C)C)S/C1=N/c1cc(-n2c(=O)cc(C(F)(F)F)n(C)c2=O)c(F)cc1Cl [Compound 20]
Reply text: 2.0

Inquiry: API: value(readout=Herbicidal rating ORYSAT (rice tolerance), system=ORYSAT (Rice, Tebonnet)) for record CCOC(=O)CN1C(=O)C(=C2CCCC2)SC1=Nc1cc(-n2c(=O)cc(C(F)(F)F)n(C)c2=O)c(F)cc1Cl [Compound 18]
Reply text: 3.0

Inquiry: Lab request: please report Herbicidal rating ORYSAT (rice tolerance) under test system ORYSAT (Rice, Tebonnet) for CCOC(=O)CCN1C(=O)CSC1=Nc1cc(-n2c(=O)cc(C(F)(F)F)n(C)c2=O)c(Cl)cc1Cl [Compound 32]
Reply text: 0.0

Inquiry: Can you look up Herbicidal rating ORYSAT (rice tolerance) on ORYSAT (Rice, Tebonnet) for CCOC(=O)CN1C(=O)C(=Cc2ccc(F)cc2)SC1=Nc1cc(-n2c(=O)cc(C(F)(F)F)n(C)c2=O)c(F)cc1Cl [Compound 21] ?
Reply text: 0.0

Inquiry: Lab request: please report Herbicidal rating ORYSAT (rice tolerance) under test system ORYSAT (Rice, Tebonnet) for Cn1c(C(F)(F)F)cc(=O)n(-c2cc(/N=C3/SCC(=O)N3CC(=O)O)c(Cl)cc2F)c1=O [Compound 52]
Reply text: 0.0

###

# Test system: ABUTH (Velvetleaf)
# protocol.text: Postemergence herbicidal evaluation
# Type: in vivo, Abutilon theophrasti
# experimental.context: postemergence, rate 0.0630 kg/ha
Exercise: for every item that follows, state its recorded ABUTH herbicidal rating.
# respond with the number and nothing more

Inquiry: Give its ABUTH herbicidal rating value. Item: Cn1c(C(F)(F)F)cc(=O)n(-c2cc(N=C3SCC(=O)N3[C@H](Cc3ccccc3)C(=O)O)c(Cl)cc2F)c1=O
Reply text: 9.0

Inquiry: Endpoint output: ABUTH herbicidal rating of C=CCN1C(=O)C(CC(=O)OC(C)C(=O)OCC)SC1=Nc1cc(-n2c(=O)ccn(C)c2=O)c(F)cc1Cl (stereo not shown) . Value?
Reply text: 9.0

Inquiry: Which value of ABUTH herbicidal rating has been reported for CCOC(=O)CN1C(=O)C(CC(=O)OCCF)SC1=Nc1cc(-n2c(=O)cc(C(F)(F)F)n(C)c2=O)c(F)cc1Cl (stereo not shown) in the records?
Reply text: 9.0

Inquiry: What ABUTH herbicidal rating value was documented for this compound, COC(=O)C1(N2C(=O)CSC2=Nc2cc(-n3c(=O)cc(C(F)(F)F)n(C)c3=O)c(F)cc2Cl)CCCCC1 ?
Reply text: 9.0

Inquiry: Entry CN1C(=O)C(CC(N)=O)SC1=Nc1cc(-n2c(=O)cc(C(F)(F)F)n(C)c2=O)c(F)cc1Cl (stereo not shown) : reported ABUTH herbicidal rating = ?
Reply text: 9.0

Inquiry: # query: ABUTH herbicidal rating of entry C=CCN1C(=O)CSC1=Nc1cc(-n2c(=O)cc(C(F)(F)F)n(C)c2=O)c(F)cc1Cl
Reply text: 9.0

Inquiry: Please look up its ABUTH herbicidal rating: CCOC(=O)C(c1ccc(Cl)cc1)N1C(=O)CSC1=Nc1cc(-n2c(=O)cc(C(F)(F)F)n(C)c2=O)c(F)cc1Cl (racemic)
Reply text: 9.0

###

# Test system: IPOHE (Morningglory, Ivyleaf)
# protocol.text: Postemergence herbicidal evaluation
# Assay type: in vivo, Ipomoea hederacea
# experimental.context: postemergence, rate 0.0158 kg/ha
measurement.name: herbicidal rating IPOHE
Please reply with the value in numeric form only.

Inquiry: Quick one: herbicidal rating IPOHE for CCOC(=O)CN1C(=O)C(CC(=O)NS(=O)(=O)C(C)C)SC1=Nc1cc(-n2c(=O)cc(C(F)(F)F)n(C)c2=O)c(F)cc1Cl (stereo not shown) ?
Reply text: 9.0

Inquiry: I'd like to know its herbicidal rating IPOHE. The molecule in question is C=CCN1C(=O)C(CC(=O)NS(=O)(=O)C(C)C)SC1=Nc1cc(-n2c(=O)cc(C(F)(F)F)n(C)c2=O)c(F)cc1Cl (stereo not shown)
Reply text: 1.0

Inquiry: GET /values?readout=herbicidal rating IPOHE&item= CCOC(=O)CN1C(=O)C(CC(=O)O)SC1=Nc1cc(-n2nc(C)n(C(F)F)c2=O)c(F)cc1Cl (stereo not shown)
Reply text: 9.0

Inquiry: Which herbicidal rating IPOHE reading was recorded for the molecule C=CCOC(=O)CN1C(=O)CSC1=Nc1cc(-n2c(=O)cc(C(F)(F)F)n(C)c2=O)c(F)cc1Cl ?
Reply text: 9.0

###

Task for the reader: assign each of the following compounds its reported Preemergence herbicidal rating SETVI.
# Test system: SETVI (Foxtail, Green)
# protocol.text: Preemergence herbicidal evaluation
# Type: in vivo, Setaria viridis
# experimental.context: rate 0.0625 kg/ha; rated 4-5 weeks after treatment
Lab note: jot the number down without any unit.

Inquiry: Query (compound): Cn1c(C(F)(F)F)cc(=O)n(-c2cc(N=C3SCC(=O)N3CC(=O)NS(C)(=O)=O)c(Cl)cc2F)c1=O ; field requested: Preemergence herbicidal rating SETVI
Reply text: 3.0

Inquiry: What measured Preemergence herbicidal rating SETVI goes with COCCOC(=O)CN1C(=O)CSC1=Nc1cc(-n2c(=O)cc(C(F)(F)F)n(C)c2=O)c(F)cc1Cl ?
Reply text: 1.0

Inquiry: Value lookup for Preemergence herbicidal rating SETVI; key = CCOC(=O)CN1C(=O)C(CC(=O)OCc2ccccc2)OC1=Nc1cc(-n2c(=O)cc(C(F)(F)F)n(C)c2=O)c(F)cc1Cl (stereo not shown)
Reply text: 0.0

Inquiry: Form field: reported Preemergence herbicidal rating SETVI of Cn1c(C(F)(F)F)cc(=O)n(-c2cc(N=C3SCC(=O)N3[C@H](Cc3ccccc3)C(=O)O)c(Cl)cc2F)c1=O
Reply text: 0.0

###

# System: GLXMAW (Soybean, Williams)
# protocol.text: Preemergence herbicidal evaluation
# Assay type: in vivo, Glycine max, (L.) Merr. cv Williams
# experimental.context: preemergence, 0.1250 kg/ha, rated 4-5 weeks after treatment, 0-9 scale
measurement.name: GLXMAW rating
Could you keep your reply to the number by itself?

Inquiry: Item: CCOC(=O)CN1C(=O)C(CC(=O)OC(C)C(=O)OCC)S/C1=N/c1cc(-n2c(=O)cc(C(F)(F)F)n(C)c2=O)c(F)cc1Cl (centres unmarked) [Compound 87] Test system: GLXMAW (Soybean, Williams) Read-out: GLXMAW rating Value: ?
Reply text: 0.0

Inquiry: # get_value(readout= GLXMAW rating, system= GLXMAW (Soybean, Williams)) for CCOC(=O)CN1C(=O)C(CC(=O)NS(=O)(=O)CC)SC1=Nc1cc(-n2c(=O)cc(C(F)(F)F)n(C)c2=O)c(F)cc1Cl (centres unmarked) [Compound 103]
Reply text: 0.0

Inquiry: Which measured GLXMAW rating belongs to CCOC(=O)CN1C(=O)C(CC(=O)NS(=O)(=O)c2ccccc2)SC1=Nc1cc(-n2c(=O)cc(C(F)(F)F)n(C)c2=O)c(F)cc1Cl (centres unmarked) [Compound 100] , tested on GLXMAW (Soybean, Williams)?
Reply text: 1.0

Inquiry: What GLXMAW rating appears in the records for this compound with GLXMAW (Soybean, Williams)? CN1C(=O)C(CC(N)=O)SC1=Nc1cc(-n2c(=O)cc(C(F)(F)F)n(C)c2=O)c(F)cc1Cl (centres unmarked) [Compound 92]
Reply text: 1.0

Inquiry: Form field: GLXMAW rating recorded for C=CCN1C(=O)C(CC(N)=O)SC1=Nc1cc(-n2c(=O)cc(C(F)(F)F)n(C)c2=O)c(F)cc1Cl (centres unmarked) [Compound 99] with GLXMAW (Soybean, Williams) (enter value)
Reply text: 4.0

###

# Tested on: ECHORC (Watergrass (Calif.))
# protocol.text: Postemergence weed control under flooded paddy conditions
# Type: in vivo, Echinochloa oryzoides
# experimental.context: rate 0.2500 kg/ha, postemergence weeds, 3-4 weeks after treatment
Doc: threshold 6 (exclusive). Items with Herbicidal rating ECHORC beneath it return condition met; others return condition not met.

Inquiry: Confirm or reject: Herbicidal rating ECHORC of CCOC(=O)CN1C(=O)C(Cc2ccccc2OC(C)C(=O)OC)SC1=Nc1cc(-n2c(=O)cc(C(F)(F)F)n(C)c2=O)c(F)cc1Cl (centres unmarked) [Compound 50] lies strictly below 6
Reply text: condition not met

Inquiry: Take the compound CCOC(=O)CN1C(=O)C(F)SC1=Nc1cc(-n2c(=O)cc(C(F)(F)F)n(C)c2=O)c(F)cc1Cl (centres unmarked) [Compound 11] and say whether its Herbicidal rating ECHORC is less than 6.
Reply text: condition met

Inquiry: Input O=C1CSC(=Nc2cc(N3C(=O)C4=C(CCCC4)C3=O)c(F)cc2Cl)N1c1ccccc1 [Compound 3] ; condition: Herbicidal rating ECHORC strictly below 6. Does it hold?
Reply text: condition met

Inquiry: I'd appreciate it if you could check whether CCOC(=O)CN1C(=O)C(CC)SC1=Nc1cc(-n2c(=O)cc(C(F)(F)F)n(C)c2=O)c(F)cc1Cl (centres unmarked) [Compound 13] has Herbicidal rating ECHORC smaller than 6.
Reply text: condition not met
